System: primary rat microglia
Assay Info: Cell toxicity (dead cells, size <150 μm2) in LPS assay
Test Parameters: primary microglia HTS, LPS stimulation; decreased size (<150 μm^2) as marker of toxicity
Structures can show the parent of a compound that is named as a salt.
Measured Attribute: LPS % cell toxicity (%)
Answer format: numeric, % implied, no suffix.

Example entries begin here.
O=C1C=C2C=C[C@@H]3C[C@@]2(O1)[C@H]1CCCCN31 [Securinine, reference compound]; 1
O=C(OOC(=O)c1ccccc1)c1ccccc1 [Benzoyl peroxide, reference compound]; 2
C[N+]1(C)[C@@H]2C[C@@H](OC(=O)[C@H](CO)c3ccccc3)C[C@H]1[C@@H]1O[C@@H]12 [Methscopolamine Bromide]; 0
Cc1ccsc1/C=C/C1=NCCCN1C [Morantel Citrate]; 0
Cc1ccnc2c1NC(=O)c1cccnc1N2C1CC1; 0
CCN(CC)CCOCCOC(=O)C(CC)(CC)c1ccccc1; 0
Cc1cccc(N(C)C(=S)Oc2ccc3ccccc3c2)c1 [Tolnaftate, reference compound]; 1
O=C(Nc1ccc([N+](=O)[O-])cc1Cl)c1cc(Cl)ccc1O [Nicolsamide, Niclosamide]; 1

Exercise: Return reported LPS % cell toxicity; argument: `Nc1ccc(O)c(C(=O)O)c1`
Key: 0

Exercise: Return reported LPS % cell toxicity; argument: CCN[C@@H]1C[C@H](N)[C@@H](O[C@H]2OC(CN)=CC[C@H]2N)[C@H](O)[C@H]1O[C@H]1OC[C@](C)(O)[C@H](NC)[C@H]1O.CCN[C@@H]1C[C@H](N)[C@@H](O[C@H]2OC(CN)=CC[C@H]2N)[C@H](O)[C@H]1O[C@H]1OC[C@](C)(O)[C@H](NC)[C@H]1O.O=S(=O)(O)O.O=S(=O)(O)O.O=S(=O)(O)O.O=S(=O)(O)O.O=S(=O)(O)O [Netilmicin Sulfate]
Key: 0

Exercise: Return reported LPS % cell toxicity; argument: `O=C(O)CCc1nc(-c2ccccc2)c(-c2ccccc2)o1`
Key: 1

###

System: fibrin- and LPS-induced microglia activation
Assay Info: cells
Assay type: cell-based, rat
Test Parameters: HTS of 1907 compounds, quadrant by fibrin and LPS inhibition
Measured Attribute: Quadrant (FIG. 5b)

O=c1[nH]c2ccccc2n1C1CCN(CCCC(c2ccc(F)cc2)c2ccc(F)cc2)CC1 [Pimozide, reference compound]; Q3
CC(C)C(=O)c1c(C(C)C)nn2ccccc12 [Ibudilast, reference compound]; Q2
CC[C@@]1(O)C(=O)OCc2c1cc1n(c2=O)Cc2cc3c([N+](=O)[O-])cccc3nc2-1 [Rubitecan, reference compound]; Q3
O=C1/C(=C/c2cccs2)CCC/C1=C\c1cccs1; Q4

###

Quick reference: IC50 of the listed items.
Assay Info: in vitro
Test Parameters: rat, Cell Toxicity IC50 (uM) [cFib assay], cFib assay
Where a name gives a salt, the structure may show the parent alone. Where a SMILES comes first, the peptide text is derived from it. Bridges are numbered along the chain shown (N, C = ends). [ ]: non-standard residue; d: D form. The star is where a group is joined. Ileψ(thiazoline)Cys = CC[C@H](C)[C@H](N)C1=N[C@H](C(=O)*)CS1; dOrn = NCCC[C@@H](N)C(=O)O

CN(C)[C@@H]1C(O)=C(C(N)=O)C(=O)[C@@]2(O)C(O)=C3C(=O)c4c(O)ccc(Cl)c4[C@@H](O)[C@H]3C[C@@H]12 [Demeclocycline hydrochloride, reference compound]; > 20 µM
C=C(CC)C(=O)c1ccc(OCC(=O)O)c(Cl)c1Cl [Ethacrynic acid, reference compound]; > 20 µM
C=C1C[C@H]2[C@@H]3C=C(C)C4=CC(=O)CC[C@]4(C)[C@H]3CC[C@]2(C)[C@@]1(OC(C)=O)C(C)=O [Melengestrol acetate, reference compound]; > 20 µM
CNC(C)(C)Cc1ccccc1 [Mephentermine sulfate, reference compound]; > 20 µM
CN(C)CCCOc1nn(Cc2ccccc2)c2ccccc12 [Benzydamine hydrochloride, reference compound]; 20 µM
CC[C@H](C)[C@H](N)C1=N[C@H](C(=O)N[C@@H](CC(C)C)C(=O)N[C@H](CCC(=O)O)C(=O)N[C@H](C(=O)N[C@H]2CCCCNC(=O)[C@H](CC(N)=O)NC(=O)[C@@H](CC(=O)O)NC(=O)[C@H](Cc3cnc[nH]3)NC(=O)[C@@H](Cc3ccccc3)NC(=O)[C@H]([C@@H](C)CC)NC(=O)[C@@H](CCCN)NC2=O)[C@@H](C)CC)CS1 [Bacitracin, reference compound] ({Ileψ(thiazoline)Cys}-L[dE]IK[dOrn]I[dF]H[dD]N; lactam 4-C); > 20 µM
C[C@]12C=CC(=O)C=C1CC[C@H]1[C@@H]3C[C@@H](O)[C@](O)(C(=O)CO)[C@@]3(C)C[C@H](O)[C@@]12F [Triamcinolone, reference compound]; > 20 µM
CCOC(=O)O[C@]1(C(=O)COC(=O)CC)CC[C@H]2[C@@H]3CCC4=CC(=O)C=C[C@]4(C)[C@H]3[C@@H](O)C[C@@]21C [Prednicarbate, reference compound]; > 20 µM
CC(=O)O[C@]1(C(C)=O)CC[C@H]2[C@@H]3C=C(Cl)C4=CC(=O)CC[C@]4(C)[C@H]3CC[C@@]21C [Chlormadinone acetate, reference compound]; > 20 µM

Exercise: Return reported IC50; argument: O=P(O)(O)C(O)(Cn1ccnc1)P(=O)(O)O [Zoledronic acid, reference compound]
Key: > 20 µM

###

Quick reference: Fibrin % cell toxicity of the listed items.
System: primary rat microglia
Assay Info: Cell toxicity (dead cells, size <150 μm2) in coated fibrin (cFib) assay;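 for Fibrin % cell toxicity: share of dead cells sized under 150 µm2 at 10 µM in fibrin-stimulated microglia HTS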
Test Parameters: primary microglia HTS, fibrin assay, dead cells (size <150 μm2), compounds at 10 μM
Answer format: numeric, % implied, no suffix.

Example entries begin here.
CC(=O)OCC(CCn1cnc2cnc(N)nc21)COC(C)=O; 0
CCc1cn([C@H]2C[C@H](O)[C@@H](CO)O2)c(=O)[nH]c1=O; 0
Nc1ccncc1; 2
CCCCCCOC(=O)NC(=N)c1ccc(NCc2nc3cc(C(=O)N(CCC(=O)OCC)c4ccccn4)ccc3n2C)cc1 [Dabigatran etexilate]; 0
CC(C)Nc1cccnc1N1CCN(C(=O)c2cc3cc(NS(C)(=O)=O)ccc3[nH]2)CC1; 1

Exercise: Return reported Fibrin % cell toxicity; argument: O=C(NCCCN1CCOCC1)c1ccc(Cl)cc1 [Eprobemide]
Key: 0

Exercise: Return reported Fibrin % cell toxicity; argument: `N=C(N)c1ccc(/N=N/Nc2ccc(C(=N)N)cc2)cc1`
Key: 0

Exercise: Return reported Fibrin % cell toxicity; argument: `Cc1c(OCC(F)(F)F)ccnc1C[S@@+]([O-])c1nc2ccccc2[nH]1`
Key: 0

Exercise: Return reported Fibrin % cell toxicity; argument: `O=c1c2ccccc2[se]n1-c1ccccc1`
Key: 0

###

System: primary rat microglia
Test Parameters: rat
Where a name gives a salt, the structure may show the parent alone.
Quick reference: LPS % cell toxicity of the listed items.
Answer format: numeric, % implied, no suffix.

CN1[C@@H]2CC[C@H]1C[C@@H](OC(c1ccccc1)c1ccccc1)C2; 0
CNC(=C[N+](=O)[O-])NCCSCc1ccc(CN(C)C)o1; 0
CC(C)CC(N(C)C)C1(c2ccc(Cl)cc2)CCC1 (centres unmarked); 0
CNC(=O)c1cc(Oc2ccc(NC(=O)Nc3ccc(Cl)c(C(F)(F)F)c3)cc2)ccn1; 1
COc1cc(C(=O)NS(=O)(=O)c2ccccc2C)ccc1Cc1cn(C)c2ccc(NC(=O)OC3CCCC3)cc12; 1
NC(=O)c1cccnc1 [Nicotinamide]; 0

Exercise: Return reported LPS % cell toxicity; argument: C[C@]12C=CC(=O)C=C1CC[C@@H]1[C@@H]2[C@@H](O)C[C@@]2(C)[C@H]1CC[C@]2(O)C(=O)COC(=O)CCC(=O)O [Prednisolone Hemisuccinate]
Key: 3

Exercise: Return reported LPS % cell toxicity; argument: CN1CCC(=C2c3ccccc3Sc3ccccc32)CC1 [Pimethixene Maleate]
Key: 2

###

Tested on: LPS-induced microglia activation
Assay Info: Image-based assay of LPS-induced microglia activation (HTS and dose response)
Type: cell-based, rat
Test Parameters: primary microglia HTS, LPS stimulation, compounds at 10 μM
Measured Attribute: LPS % inhibition (%)
Answer format: numeric, % implied, no suffix.

Example entries begin here.
OCC(S)CS (centres unmarked); 16
C[C@@H]([C@H](O)c1ccccc1)N(C)C; 7

Exercise: Lab request: please report LPS % inhibition under test system LPS-induced microglia activation for CC12CCC(CC1=O)C2(C)C (centres unmarked)
Key: 6

Exercise: Lab request: please report LPS % inhibition under test system LPS-induced microglia activation for `O=C(CNC(=O)c1ccc(Cl)cc1)NO`
Key: 22

Exercise: Lab request: please report LPS % inhibition under test system LPS-induced microglia activation for C=CC(N)CCC(=O)O (racemic) [(±)-gamma-vinyl Gaba, Vigabatrin]
Key: 12

Exercise: Lab request: please report LPS % inhibition under test system LPS-induced microglia activation for `COc1ccc(C[C@H](N)C(=O)N[C@H]2[C@@H](O)[C@H](n3cnc4c(N(C)C)ncnc43)O[C@@H]2CO)cc1.Cl.Cl`
Key: 124

Exercise: Lab request: please report LPS % inhibition under test system LPS-induced microglia activation for `CC(=O)Oc1c(C)cccc1C(=O)O`
Key: 15

src = patent US20210330611A1
